Test system: Penicillium chrysogenum
measurementDescription: Fungicidal activity against Penicillium chrysogenum after 48 hrs
Type: functional
attributeMeasured: MFC (µg)
Give bare numbers, in µg.

The following compounds have reported results that may help.
Clc1ccc(-c2c[nH]c(Nc3cc(-c4ccc(Cl)cc4)n(-c4nc(-c5ccc(Cl)cc5)cs4)n3)n2)cc1 :: 100
c1ccc(-c2csc(Nc3cc(-c4ccccc4)n(-c4nc(-c5ccccc5)cs4)n3)n2)cc1 :: 200
c1ccc(-c2c[nH]c(Nc3cc(-c4ccccc4)n(-c4nc(-c5ccccc5)cs4)n3)n2)cc1 :: 100

Quick one: MFC for Clc1ccc(-c2csc(Nc3cc(-c4ccc(Cl)cc4)n(-c4nc(-c5ccc(Cl)cc5)cs4)n3)n2)cc1 ?
200
